Recorded pIC50, one value per entry.
- assay system: JAK3 (Homo sapiens, UniProt P52333)
- Sequence (P52333 1-1124): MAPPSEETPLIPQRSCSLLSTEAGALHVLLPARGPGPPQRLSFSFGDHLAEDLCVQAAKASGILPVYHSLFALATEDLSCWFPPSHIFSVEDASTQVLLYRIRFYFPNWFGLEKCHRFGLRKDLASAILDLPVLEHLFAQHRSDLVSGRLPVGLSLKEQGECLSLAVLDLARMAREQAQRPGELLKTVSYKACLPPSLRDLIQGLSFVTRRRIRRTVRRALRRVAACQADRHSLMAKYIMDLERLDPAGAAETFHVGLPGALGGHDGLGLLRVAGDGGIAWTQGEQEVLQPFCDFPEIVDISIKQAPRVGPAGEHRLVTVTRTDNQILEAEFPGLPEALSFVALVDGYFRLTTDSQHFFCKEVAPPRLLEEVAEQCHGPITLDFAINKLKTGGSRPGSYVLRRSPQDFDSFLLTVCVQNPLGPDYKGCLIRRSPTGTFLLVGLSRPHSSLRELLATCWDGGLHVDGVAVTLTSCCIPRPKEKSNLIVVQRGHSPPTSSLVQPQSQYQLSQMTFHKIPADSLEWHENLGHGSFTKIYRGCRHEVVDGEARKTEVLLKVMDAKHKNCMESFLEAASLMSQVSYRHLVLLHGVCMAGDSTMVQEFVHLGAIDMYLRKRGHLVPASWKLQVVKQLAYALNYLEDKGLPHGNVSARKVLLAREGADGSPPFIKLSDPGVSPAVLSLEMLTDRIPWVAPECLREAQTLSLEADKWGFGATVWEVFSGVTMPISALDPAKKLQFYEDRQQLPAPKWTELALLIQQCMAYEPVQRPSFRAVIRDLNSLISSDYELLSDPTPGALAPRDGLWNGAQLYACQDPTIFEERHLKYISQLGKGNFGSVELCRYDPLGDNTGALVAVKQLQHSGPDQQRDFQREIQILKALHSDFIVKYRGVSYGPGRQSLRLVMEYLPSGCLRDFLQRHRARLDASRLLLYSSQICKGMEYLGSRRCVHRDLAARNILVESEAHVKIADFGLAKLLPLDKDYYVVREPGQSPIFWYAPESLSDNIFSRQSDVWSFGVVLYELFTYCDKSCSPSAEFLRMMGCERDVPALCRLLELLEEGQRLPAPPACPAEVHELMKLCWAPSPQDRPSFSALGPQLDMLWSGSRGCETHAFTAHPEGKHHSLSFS
pIC50: −log10 of the molar value.

### Prompt Form field: reported pIC50 of `CNC(=O)C(=O)N1CCC[C@@H](Nc2n[nH]c3nccc(Oc4ccc(C(=O)Nc5cc(C)ccn5)cc4)c23)C1`
### Response < 5.00

### Prompt Form field: reported pIC50 of `Cc1ccnc(NC(=O)c2ccc(Oc3ccnc4[nH]nc(N[C@@H]5CCCN(C(=O)c6ncc[nH]6)C5)c34)cc2)c1`
### Response < 5.00

### Prompt Form field: reported pIC50 of `Cc1ccnc(NC(=O)c2ccc(Oc3ccnc4[nH]nc(N[C@@H]5CCCN(C(=O)[C@@H]6CCOC6)C5)c34)cc2)c1`
### Response < 5.00

### Prompt Form field: reported pIC50 of `Cc1ccnc(NC(=O)c2ccc(Oc3ccnc4[nH]nc(N[C@@H]5CCCN(C(=O)C6CCCC6)C5)c34)cc2)c1`
### Response < 5.00

### Prompt Form field: reported pIC50 of `C=CC(=O)N1CCC[C@@H](Nc2n[nH]c3nccc(Oc4ccc(-c5nc(C(F)(F)F)c[nH]5)cc4)c23)C1`
### Response 5.00 to 6.00

### Prompt Form field: reported pIC50 of `CCNC(=O)N[C@@H]1CCCN(c2n[nH]c3nccc(Oc4ccc(C(=O)Nc5cc(C(F)(F)F)ccn5)cc4)c23)C1`
### Response < 5.00

### Prompt Form field: reported pIC50 of `C=CC(=O)N1CCC[C@@H](Nc2n[nH]c3nccc(Oc4ccc(C(=O)Nc5cc(C(F)(F)F)ccn5)cc4)c23)C1`
### Response 6.00 to 7.00

### Prompt Form field: reported pIC50 of `COCC1(C(=O)N2CCC[C@@H](Nc3n[nH]c4nccc(Oc5ccc(C(=O)Nc6cc(C)ccn6)cc5)c34)C2)CCC1`
### Response < 5.00

* * *

- assay system: Btk (Homo sapiens, UniProt Q06187)
- Sequence (Q06187 whole entry): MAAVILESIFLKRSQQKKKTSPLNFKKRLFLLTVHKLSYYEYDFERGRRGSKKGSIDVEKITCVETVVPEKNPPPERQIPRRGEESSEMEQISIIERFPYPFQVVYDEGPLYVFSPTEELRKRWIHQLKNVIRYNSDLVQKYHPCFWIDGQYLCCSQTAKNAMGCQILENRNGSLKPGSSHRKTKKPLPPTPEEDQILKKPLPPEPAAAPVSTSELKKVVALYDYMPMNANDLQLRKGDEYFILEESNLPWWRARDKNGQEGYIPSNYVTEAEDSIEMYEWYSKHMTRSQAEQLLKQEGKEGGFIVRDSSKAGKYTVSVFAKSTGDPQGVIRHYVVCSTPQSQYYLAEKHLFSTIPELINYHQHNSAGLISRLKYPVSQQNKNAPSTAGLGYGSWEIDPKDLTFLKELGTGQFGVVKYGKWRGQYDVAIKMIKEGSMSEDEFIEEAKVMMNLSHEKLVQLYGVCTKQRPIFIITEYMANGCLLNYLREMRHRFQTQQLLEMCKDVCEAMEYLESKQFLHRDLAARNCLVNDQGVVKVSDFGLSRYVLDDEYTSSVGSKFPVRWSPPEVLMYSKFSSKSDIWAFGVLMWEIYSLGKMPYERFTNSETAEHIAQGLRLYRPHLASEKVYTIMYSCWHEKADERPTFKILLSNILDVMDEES
- assay details: Btk kinase activity, TR-FRET assay
- Assay type: biochemical
- condition description: read-out: Btk (IC50)
pIC50: −log10 of the molar value.
readout name: pIC50

Known pIC50 results, listed for orientation:
CN(C/C=C/C(=O)N1CCC[C@@H](Nc2n[nH]c3nccc(Oc4ccc(C(=O)Nc5cc(C(F)(F)F)ccn5)cc4)c23)C1)C1CC1 ... > 7.00
N#C/C(=C\c1ccccc1)C(=O)N1CC[C@@H](Nc2n[nH]c3nccc(Oc4ccc(Oc5ccccc5)cc4)c23)C1 ... > 7.00

### Prompt Form field: reported pIC50 of `Cc1ccnc(NC(=O)c2ccc(Oc3ccnc4[nH]nc(N[C@@H]5CCCN(C(=O)c6cccc(F)c6)C5)c34)cc2)c1`
### Response > 7.00

### Prompt Form field: reported pIC50 of `COCCN(C)C/C=C/C(=O)N1CC[C@@H](Nc2n[nH]c3nccc(Oc4ccc(Oc5ccccc5)cc4)c23)C1`
### Response > 7.00

### Prompt Form field: reported pIC50 of `C=CC(=O)N1CCC[C@@H](Nc2n[nH]c3nccc(Oc4ccc(-c5cc(C(F)(F)F)ccn5)cc4)c23)C1`
### Response 6.00 to 7.00

### Prompt Form field: reported pIC50 of `Cc1cnc(NC(=O)c2ccc(Oc3ccnc4[nH]nc(N[C@@H]5CCCN(C(=O)/C=C/CN(C)C)C5)c34)cc2)s1`
### Response > 7.00

### Prompt Form field: reported pIC50 of `N#Cc1ccnc(NC(=O)c2ccc(Oc3ccnc4[nH]nc(N[C@H]5CC[C@H](O)CC5)c34)cc2)c1`
### Response > 7.00

### Prompt Form field: reported pIC50 of `Cc1cc(NC(=O)c2cccc(Oc3ccnc4[nH]nc(N[C@@H]5CCNC5)c34)c2)ccc1C(C)C`
### Response 6.00 to 7.00

### Prompt Form field: reported pIC50 of `CC(=O)N1CC[C@H](Nc2n[nH]c3nccc(Oc4cccc(C(=O)Nc5ccc(C(C)C)c(C)c5)c4)c23)C1`
### Response 6.00 to 7.00

### Prompt Form field: reported pIC50 of `Cc1ccnc(NC(=O)c2ccc(Oc3ccnc4[nH]nc(N[C@@H]5CCCN(C(=O)C6CCNCC6)C5)c34)cc2)c1`
### Response > 7.00

### Prompt Form field: reported pIC50 of `CN(C/C=C/C(=O)N1CC[C@@H](Nc2n[nH]c3nccc(Oc4ccc(Oc5ccccc5)cc4C#N)c23)C1)C1CC1`
### Response 6.00 to 7.00

### Prompt Form field: reported pIC50 of `COCCC(=O)N1CCC[C@@H](Nc2n[nH]c3nccc(Oc4ccc(C(=O)Nc5cc(C)ccn5)cc4)c23)C1`
### Response > 7.00

### Prompt Form field: reported pIC50 of `CC(=O)N1CC[C@@H](Nc2n[nH]c3nccc(Oc4cccc(C(=O)Nc5ccc(C(C)C)c(C)c5)c4)c23)C1`
### Response 6.00 to 7.00

### Prompt Form field: reported pIC50 of `CN1CCC(C(=O)N2CCC[C@@H](Nc3n[nH]c4nccc(Oc5ccc(C(=O)Nc6cc(C(F)(F)F)ccn6)cc5)c34)C2)CC1`
### Response > 7.00

* * *

- assay system: Btk (Homo sapiens, UniProt Q06187)
- assay details: Btk kinase activity, TR-FRET assay
- Type: biochemical
- condition description: read-out: Btk (IC50)
readout name: IC50

Known IC50 results, listed for orientation:
C=CC(=O)N1CCC[C@@H](Oc2n[nH]c3nccc(Nc4cccc(C(=O)Nc5ccc(C(C)C)c(C)c5)c4)c23)C1 [compound 132] ... < 100 nM
Cc1cc(Oc2ccnc3[nH]nc(N[C@@H]4CCCN(C(=O)/C=C/CN(C)C5CC5)C4)c23)ccc1Oc1ccccc1 [compound 156] ... < 100 nM
Cc1ccnc(NC(=O)c2ccc(Oc3ccnc4[nH]nc(N[C@@H]5CCCN(C(=O)C6(C)CCN(C(=O)OC(C)(C)C)CC6)C5)c34)cc2)c1 [compound 103] ... < 100 nM

### Prompt Form field: reported IC50 of C=CC(=O)N1CCC[C@@H](Nc2n[nH]c3nccc(Oc4ccc(C(=O)Nc5cc(C)n(C)n5)cc4)c23)C1 [compound 159]
### Response < 100 nM

### Prompt Form field: reported IC50 of Cc1ccnc(NC(=O)c2ccc(Oc3ccnc4[nH]nc(N[C@@H]5CCCN(C(=O)c6nccs6)C5)c34)cc2)c1 [compound 241]
### Response < 100 nM

### Prompt Form field: reported IC50 of CN1CC[C@@H](Nc2n[nH]c3nccc(Oc4ccc(Oc5ccccc5)cc4)c23)C1 [compound 45]
### Response < 100 nM

### Prompt Form field: reported IC50 of Cc1ccnc(NC(=O)c2ccc(Oc3ccnc4[nH]nc(N[C@@H]5CCCN(C(=O)c6ccccn6)C5)c34)cc2)c1 [compound 110]
### Response < 100 nM

### Prompt Form field: reported IC50 of Cc1ccnc(NC(=O)c2ccc(Oc3ccnc4[nH]nc(N[C@@H]5CCCN(C(=O)[C@@H]6CCOC6)C5)c34)cc2)c1 [compound 115]
### Response < 100 nM
